UniProt Q9Y5N1 measurements of AC50, listed per entry.
Sequence (Q9Y5N1 whole entry): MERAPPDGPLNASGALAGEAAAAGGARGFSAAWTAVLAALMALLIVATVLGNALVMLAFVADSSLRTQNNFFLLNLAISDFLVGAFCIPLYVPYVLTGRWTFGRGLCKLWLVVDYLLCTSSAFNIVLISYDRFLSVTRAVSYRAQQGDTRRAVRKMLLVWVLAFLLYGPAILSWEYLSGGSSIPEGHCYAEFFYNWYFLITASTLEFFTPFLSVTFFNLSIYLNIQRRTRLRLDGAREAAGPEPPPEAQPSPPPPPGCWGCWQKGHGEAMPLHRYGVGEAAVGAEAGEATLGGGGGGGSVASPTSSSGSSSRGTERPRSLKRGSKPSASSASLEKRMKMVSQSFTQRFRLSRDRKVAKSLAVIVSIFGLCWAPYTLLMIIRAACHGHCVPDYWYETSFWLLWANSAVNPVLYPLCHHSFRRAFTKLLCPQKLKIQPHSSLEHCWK

// query Item CC[C@]1(O)C[C@@H]2CN(CCc3c([nH]c4ccccc34)[C@@](C(=O)OC)(c3cc4c(cc3OC)N(C)[C@H]3[C@@](O)(C(N)=O)[C@H](O)[C@]5(CC)C=CCN6CC[C@]43[C@@H]65)C2)C1 : provide AC50
// result > 30 µM

List reported AC50 for each of these molecules:
1. CCCS(=O)(=O)Nc1ccc(F)c(C(=O)c2c[nH]c3ncc(-c4ccc(Cl)cc4)cc23)c1F
2. CN[C@@H](C)[C@H](O)c1ccccc1
3. CCOC(=O)[C@H](CCc1ccccc1)N[C@@H](C)C(=O)N1CCC[C@H]1C(=O)O
4. [H]/N=C(/N)c1ccc(NCc2nc3cc(C(=O)N(CCC(=O)O)c4ccccn4)ccc3n2C)cc1
5. CCCC(=O)N1CCCN(c2nc(N)c3cc(OC)c(OC)cc3n2)CC1
6. NC(=O)C[S+]([O-])C(c1ccccc1)c1ccccc1 (configuration not stated)
7. COc1ccc2cccc(CCNC(C)=O)c2c1
8. CS(=O)(=O)c1ccc([C@@H](O)[C@@H](CO)NC(=O)C(Cl)Cl)cc1

// result
1: > 30 µM; 2: > 10 µM; 3: > 10 µM; 4: > 30 µM; 5: > 30 µM; 6: > 10 µM; 7: > 10 µM; 8: > 30 µM

List reported AC50 for each of these molecules:
1. CC(=O)O[C@@]12CO[C@@H]1C[C@H](O)[C@@]1(C)C(=O)[C@H](O)C3=C(C)[C@@H](OC(=O)[C@H](O)[C@@H](NC(=O)OC(C)(C)C)c4ccccc4)C[C@@](O)([C@@H](OC(=O)c4ccccc4)[C@H]21)C3(C)C [DOCETAXEL ANHYDROUS]
2. NC(N)=Nc1nc(CSCCC(N)=NS(N)(=O)=O)cs1
3. NC(=O)c1ncn([C@@H]2O[C@H](CO)[C@@H](O)[C@H]2O)c1O
4. CN(C)CCCN1c2ccccc2CCc2ccc(Cl)cc21

// result
1. > 30 µM
2. > 10 µM
3. > 30 µM
4. 3.8 µM

List reported AC50 for each of these molecules:
1. C1=Cc2cccc(OCC3CNCCO3)c2C1 (configuration not stated)
2. CN(CCCN1c2ccccc2CCc2ccccc21)CC(=O)c1ccc(Cl)cc1
3. CCC1(C2=CCCCCC2)C(=O)NC(=O)NC1=O
4. COc1ccc(C(=O)NCc2ccc(OCCN(C)C)cc2)cc1OC [ITOPRIDE]

// result
1. > 30 µM
2. > 30 µM
3. > 10 µM
4. 19 µM

###

Kappa-type opioid receptor (Homo sapiens, UniProt P41145) measurements of AC50, listed per entry. Note: assay procedure not described here.
Sequence (P41145 whole entry): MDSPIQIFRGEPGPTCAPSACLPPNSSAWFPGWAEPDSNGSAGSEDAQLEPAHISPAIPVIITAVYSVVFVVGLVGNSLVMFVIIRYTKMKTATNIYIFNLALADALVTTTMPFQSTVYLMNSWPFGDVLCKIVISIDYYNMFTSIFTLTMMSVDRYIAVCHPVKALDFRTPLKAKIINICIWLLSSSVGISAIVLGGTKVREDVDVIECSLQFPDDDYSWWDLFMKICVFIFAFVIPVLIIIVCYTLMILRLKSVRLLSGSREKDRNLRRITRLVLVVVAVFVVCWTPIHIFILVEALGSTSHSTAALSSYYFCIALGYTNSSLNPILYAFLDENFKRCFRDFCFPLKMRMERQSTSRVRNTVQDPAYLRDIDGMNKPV

// query Item CCc1ccc(CCOc2ccc(CC3SC(=O)NC3=O)cc2)nc1 (configuration not stated) [PIOGLITAZONE] : provide AC50
// result > 10 µM

// query Item CC(C)c1c(C(=O)Nc2ccccc2)c(-c2ccccc2)c(-c2ccc(F)cc2)n1CC[C@@H](O)C[C@@H](O)CC(=O)O [ATORVASTATIN] : provide AC50
// result > 10 µM

// query Item C[N+](C)(C)CCOC(N)=O [CARBAMOYLCHOLINE] : provide AC50
// result > 10 µM

// query Item CC/C=C\C/C=C\C/C=C\CCCCCCCC(=O)O [LINOLENIC ACID] : provide AC50
// result > 30 µM

// query Item OCCN1CCN(CCCN2c3ccccc3C=Cc3ccccc32)CC1 [OPIPRAMOL] : provide AC50
// result > 30 µM

// query Item COC(=O)[C@H]1[C@@H](OC(=O)c2ccccc2)C[C@@H]2CC[C@H]1N2C [COCAINE] : provide AC50
// result > 30 µM

# evaluate next
// query Item CCCCCOC(=O)Nc1nc(=O)n([C@@H]2O[C@H](C)[C@@H](O)[C@H]2O)cc1F [CAPECITABINE] : provide AC50
// result > 30 µM

###

experimental-system: Amine oxidase [flavin-containing] A (Homo sapiens, UniProt P21397); note: assay procedure not described here
Sequence (P21397 whole entry): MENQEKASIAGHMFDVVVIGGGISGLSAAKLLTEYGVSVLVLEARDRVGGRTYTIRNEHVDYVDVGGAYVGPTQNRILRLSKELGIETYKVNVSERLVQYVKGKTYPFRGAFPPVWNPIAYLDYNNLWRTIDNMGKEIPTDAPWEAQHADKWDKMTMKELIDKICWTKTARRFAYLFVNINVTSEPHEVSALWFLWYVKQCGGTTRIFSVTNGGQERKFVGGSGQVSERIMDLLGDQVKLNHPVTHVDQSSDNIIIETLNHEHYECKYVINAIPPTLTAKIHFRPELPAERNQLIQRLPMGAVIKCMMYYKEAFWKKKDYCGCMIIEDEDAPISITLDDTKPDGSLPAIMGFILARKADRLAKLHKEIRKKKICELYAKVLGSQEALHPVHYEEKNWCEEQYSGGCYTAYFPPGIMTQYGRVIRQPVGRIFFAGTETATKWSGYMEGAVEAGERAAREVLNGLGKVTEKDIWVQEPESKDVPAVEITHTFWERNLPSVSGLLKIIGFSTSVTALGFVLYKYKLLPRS
Type: functional
parameter-measured: AC50

Reference set, count: 2
// query Report value only: AC50, Amine oxidase [flavin-containing] A (Homo sapiens, UniProt P21397), Cc1ccc(-c2nc3ccc(C)cn3c2CC(=O)N(C)C)cc1
// result > 30 µM

// query Report value only: AC50, Amine oxidase [flavin-containing] A (Homo sapiens, UniProt P21397), Cc1ccc(C(=O)c2cc(O)c(O)c([N+](=O)[O-])c2)cc1
// result > 10 µM

List reported AC50 for each of these compounds:
1. COC(=O)[C@@H]1CC2=CC(=O)CC[C@]2(C)[C@@]23O[C@@H]2C[C@@]2(C)[C@@H](CC[C@@]24CCC(=O)O4)[C@H]13
2. O=C(CCCCC(=O)Nc1c(I)cc(I)c(C(=O)O)c1I)Nc1c(I)cc(I)c(C(=O)O)c1I [IODIPAMIDE]

// result
1. > 30 µM
2. > 10 µM

###

Would you mind telling me the reported AC50 of each entry?
experimental-system: Melanocortin receptor 4 (Homo sapiens); note: assay procedure not described here
Sequence (P32245 whole entry): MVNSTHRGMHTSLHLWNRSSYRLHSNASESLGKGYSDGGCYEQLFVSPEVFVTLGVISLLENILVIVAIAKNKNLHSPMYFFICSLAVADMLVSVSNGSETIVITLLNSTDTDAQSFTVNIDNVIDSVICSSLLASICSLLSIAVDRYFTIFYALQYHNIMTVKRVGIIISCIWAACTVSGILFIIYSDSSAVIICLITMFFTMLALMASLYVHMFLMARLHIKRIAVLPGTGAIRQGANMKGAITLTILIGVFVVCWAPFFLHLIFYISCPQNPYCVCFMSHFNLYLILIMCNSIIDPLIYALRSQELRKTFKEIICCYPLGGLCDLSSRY

// query Item CC(=O)O[C@@]12CO[C@@H]1C[C@H](O)[C@@]1(C)C(=O)[C@H](O)C3=C(C)[C@@H](OC(=O)[C@H](O)[C@@H](NC(=O)OC(C)(C)C)c4ccccc4)C[C@@](O)([C@@H](OC(=O)c4ccccc4)[C@H]21)C3(C)C [DOCETAXEL ANHYDROUS] : provide AC50
// result > 30 µM

// query Item CN1C(=O)CC(C)(c2ccccc2)C1=O (configuration not stated) [METHSUXIMIDE] : provide AC50
// result > 10 µM

// query Item Nc1nc(N)c2nc(-c3ccccc3)c(N)nc2n1 : provide AC50
// result > 10 µM

// query Item C#CC1(OC(N)=O)CCCCC1 [ETHINAMATE] : provide AC50
// result > 10 µM

// query Item CC(=O)OCC(=O)[C@@]12OC3(CCCC3)O[C@@H]1C[C@H]1[C@@H]3CCC4=CC(=O)C=C[C@]4(C)[C@@]3(F)[C@@H](O)C[C@@]12C [AMCINONIDE] : provide AC50
// result > 10 µM

List reported AC50 for each of these molecules:
1. CC(C(=O)O)c1ccc(C(=O)c2cccs2)cc1 (configuration not stated)
2. COC(=O)[C@@H]1CC2=CC(=O)CC[C@]2(C)[C@@]23O[C@@H]2C[C@@]2(C)[C@@H](CC[C@@]24CCC(=O)O4)[C@H]13

// result
> 10 µM
> 30 µM

###

Alpha-1A adrenergic receptor (Homo sapiens, UniProt P35348) measurements of AC50, listed per entry. Note: assay procedure not described here.
Sequence (P35348 whole entry): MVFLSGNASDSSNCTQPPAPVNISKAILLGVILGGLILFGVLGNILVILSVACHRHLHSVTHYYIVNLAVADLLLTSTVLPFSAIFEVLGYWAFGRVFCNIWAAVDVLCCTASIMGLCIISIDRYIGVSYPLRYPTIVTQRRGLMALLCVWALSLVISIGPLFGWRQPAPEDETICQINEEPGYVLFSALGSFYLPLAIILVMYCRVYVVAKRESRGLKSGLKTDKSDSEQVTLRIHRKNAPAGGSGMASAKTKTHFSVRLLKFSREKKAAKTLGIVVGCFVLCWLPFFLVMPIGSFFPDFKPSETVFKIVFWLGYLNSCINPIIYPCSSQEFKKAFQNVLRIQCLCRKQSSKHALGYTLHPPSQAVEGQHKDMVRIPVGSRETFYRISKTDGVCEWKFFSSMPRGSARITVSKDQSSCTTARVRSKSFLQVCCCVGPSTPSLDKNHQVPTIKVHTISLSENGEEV

// query Report value only: AC50, Alpha-1A adrenergic receptor (Homo sapiens, UniProt P35348), Cc1ccc(-c2nc3ccc(C)cn3c2CC(=O)N(C)C)cc1
// result 6.76 µM

// query Report value only: AC50, Alpha-1A adrenergic receptor (Homo sapiens, UniProt P35348), O=P(O)(O)C(O)(Cc1cccnc1)P(=O)(O)O
// result > 10 µM

// query Report value only: AC50, Alpha-1A adrenergic receptor (Homo sapiens, UniProt P35348), NC(=O)c1cnccn1 [PYRAZINAMIDE]
// result > 10 µM

// query Report value only: AC50, Alpha-1A adrenergic receptor (Homo sapiens, UniProt P35348), Nc1nc(N)c2nc(-c3ccccc3)c(N)nc2n1
// result > 10 µM

// query Report value only: AC50, Alpha-1A adrenergic receptor (Homo sapiens, UniProt P35348), CC(=O)N[C@H]1[C@H]([C@H](O)[C@H](O)CO)OC(C(=O)O)=C[C@@H]1N=C(N)N
// result > 30 µM

# evaluate next
// query Report value only: AC50, Alpha-1A adrenergic receptor (Homo sapiens, UniProt P35348), COC(=O)N[C@H](C(=O)N[C@@H](Cc1ccccc1)[C@@H](O)CN(Cc1ccc(-c2ccccn2)cc1)NC(=O)[C@@H](NC(=O)OC)C(C)(C)C)C(C)(C)C
// result > 10 µM
